Assay: Secondary Assay for General miRNAs Modulators and/or Inhibitors/Activators of miR-21: miR-30 Firefly Luciferase Assay
Details: HeLa miR-30 FLuc reporter, luminescence, 48 h; series mostly up to 38.3 µM
Records with an inconclusive call do not appear. The source made the active and inactive calls. Calls follow the shape of the dose curve; as a rule, active = well fitted inhibition curve with a large enough effect; inconclusive = small, poorly fitted or top-dose-only effect, or effect the other way; inactive = flat fitted curve, though single readings scatter.
Could you please pick one outcome from this set? T for active, F for inactive

QUERY SMILES: O=C(CSc1nnc(-c2ccncc2)o1)Nc1nncs1
CLASSIFICATION: F

Next up:
Query block: Test call, this compound: CC(=O)c1cnc2nc(SCc3ccccc3)nn2c1C
Result block: T

====

Test: Secondary Assay for General miRNAs Modulators and/or Inhibitors/Activators of miR-21: miR-30 Firefly Luciferase Assay
Settings: HeLa miR-30 FLuc reporter, luminescence, 48 h; series mostly up to 38.3 µM
Inconclusive results are not listed. The source made the active and inactive calls. The call rests on the fitted dose curve; in most records, active means well fitted inhibition curve with a large enough effect; inconclusive means small, poorly fitted or top-dose-only effect, or effect the other way; inactive means flat fitted curve, though single readings scatter.
QUANTITY KIND: Potency

COMPOUND: Cc1cccc(-n2nnc(-c3nc(-c4cccs4)no3)c2N)c1
Potency: 0.798 µM (active)
--
COMPOUND: Cc1ccc2c(C)c(C(=O)N(C)C(C)c3ccncn3)oc2c1C (stereo unspecified)
Potency: 22.5 µM (active)
--
COMPOUND: CCC(=O)n1nc(-c2cccnc2)nc1NCc1ccc(F)cc1
Potency: inactive
--
COMPOUND: Cc1ccc(Nc2ncnc(N)n2)cc1C
Potency: 10 µM (active)
--
COMPOUND: O=C(CSc1nnc(-c2ccc(Cl)cc2)o1)Nc1ccc(F)cc1
Potency: 3.18 µM (active)

Query block: Return reported Potency; argument: Cc1cc(SCC(=O)Nc2nsc(-c3ccc(C(C)(C)C)cc3)n2)nc2ccccc12
Result block: 2 µM (active)

Query block: Same lookup for COc1cccc(-n2nnc(-c3nc(-c4cccs4)no3)c2N)c1 , please.
Result block: 0.634 µM (active)

Query block: Same lookup for Cc1cc(C)cc(NC(=O)CSc2nnc(CNC(=O)c3ccco3)o2)c1 , please.
Result block: inactive

Query block: Same lookup for Cc1cccc(-c2nnc(SCC(=O)Nc3ccc(C)c(C)c3)o2)c1 , please.
Result block: 3.18 µM (active)

Query block: Same lookup for Cc1ccc(-c2nsc(SCC(=O)Nc3ccc4c(c3)OCO4)n2)cc1 , please.
Result block: 11.3 µM (active)

Query block: Same lookup for COc1ccccc1NC(=O)CSc1nnc(-c2ccccn2)o1 , please.
Result block: 5.04 µM (active)
